biological target: soluble cynomolgus monkey PD-1 (scyno PD-1 hFc) cleaved to remove Fc portion (cynomolgus monkey, UniProt B0LAJ3 25-170); experiment: Biacore, mAb captured on Protein A, analyte scyno PD-1 hFc cleaved of Fc
Sequence (B0LAJ3 entry or part of it limits assumed): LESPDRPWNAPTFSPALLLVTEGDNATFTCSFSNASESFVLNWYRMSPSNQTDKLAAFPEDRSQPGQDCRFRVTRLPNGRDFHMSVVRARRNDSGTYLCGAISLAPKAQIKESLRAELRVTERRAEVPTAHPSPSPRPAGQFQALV
binders and their reported Kd
Write it as a number; the unit nM goes unstated.

A selection of reference data follows.
>  <binder>
hPD-1 mAb 7 (1.2), constant region not named where tested (antibody, V domains shown) VH: QVQLVQSGAEVKKPGASVKVSCKASGYSFTSYWMNWVRQAPGQGLEWIGVIHPSDSETWLDQKFKDRVTITVDKSTSTAYMELSSLRSEDTAVYYCAREHYGTSPFAYWGQGTLVTVSS VL: EIVLTQSPATLSLSPGERATLSCRASESVDNYGMSFMNWFQQKPGQPPKLLIHAASNQGSGVPSRFSGSGSGTDFTLTISSLEPEDFAVYFCQQSKEVPYTFGGGTKVEIK

>  <Kd / nM>
1.7

$$$$
>  <binder>
PD-1 mAb 15 (antibody, V domains shown, Murine monoclonal antibody) VH: EVMLVESGGGLVKPGGSLKLSCAASGFIFSSYLISWVRQTPEKRLEWVAAISGGGADTYYADSVKGRFTISRDNAKNTLYLQMSSLRSEDTALYYCTRRGTYAMDYWGQGTSVTVSS VL: DIQMTQSPASQSASLGESVTITCLASQTIGTWLAWYQQKPGKSPQLLIYAATSLADGVPSRFSGSGSGTKFSFKISSLQAEDFVNYYCQQLYSIPWTFGGGTKLEIK

>  <Kd / nM>
40.7

$$$$

Query binder follows.
Consider the binder PD-1 mAb A (nivolumab), constant region not named where tested (antibody, V domains shown, also called 5C4; BMS-936558) VH: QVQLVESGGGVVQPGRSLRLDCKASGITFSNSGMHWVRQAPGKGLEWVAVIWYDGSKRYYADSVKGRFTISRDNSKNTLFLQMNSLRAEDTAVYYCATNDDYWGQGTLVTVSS VL: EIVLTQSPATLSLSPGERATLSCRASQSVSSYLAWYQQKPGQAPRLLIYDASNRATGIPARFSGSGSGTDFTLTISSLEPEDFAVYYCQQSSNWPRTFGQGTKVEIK and give its measured Kd.
6.9
